- Assay remarks: Absorbance spectra of the NHS dyes in PBS buffer (Example 8)
- Type: physicochemical
- Assay context: PBS buffer pH 7.2, 10 mg/ml in DMF diluted 1:1000
Consider the following molecules and their measured absorbance maxima (AbsMax) readings.
The reply should be a number in nm, with the unit left off.

Before answering, review these 3 worked examples.
| Molecule | Readout type | Readout value |
| --- | --- | --- |
| Nc1ccc2c3c(c(=O)oc2c1S(=O)(=O)O)CCC3C(CC(=O)NCCCC(=O)ON1C(=O)CCC1=O)S(=O)(=O)O (stereo not shown) [V07-09111-NHS] | absorbance maxima (AbsMax) | 352 |
| Cc1c(CC(=O)ON2C(=O)CCC2=O)c(=O)oc2cc(N)ccc12 [NHS-AMCA, reference compound] | absorbance maxima (AbsMax) | 349 |
| Nc1cc2oc(=O)c3c(c2cc1S(=O)(=O)O)C(C(CC(=O)NCCCC(=O)ON1C(=O)CCC1=O)S(=O)(=O)O)CC3 (stereo not shown) [V07-09144-NHS] | absorbance maxima (AbsMax) | 347 |

Then there is this molecule:
Inquiry: GET /values?readout=absorbance maxima (AbsMax)&item= Cc1c(CC(=O)ON2C(=O)CCC2=O)c(=O)oc2cc(N)c(S(=O)(=O)O)cc12 [Alexa Fluor 350-NHS, reference compound]
Reply text: 345

---

- Assay remarks: UV-Vis absorption and emission maxima given with the synthesis examples
- Assay type: physicochemical
- Assay context: in methanol
Readout type: ε (L/mol/cm)
The reply should be a number in L/mol/cm, with the unit left off.

Inquiry: GET /values?readout=ε&item= CCOC(=O)CCC1CCc2c1c1ccc(NC(=O)OCC)cc1oc2=O (stereo not shown)
Reply text: 23000

---

- Assay remarks: UV-Vis absorption and emission maxima given with the synthesis examples
- Format: physicochemical
- Assay context: UV-Vis (PBS)
Structures can show the parent of a compound that is named as a salt.
Consider the following compounds and their measured λem readings.
The reply should be a number in nm, with the unit left off.

| Compound | λem, nm |
| --- | --- |
| Nc1ccc2c3c(c(=O)oc2c1S(=O)(=O)O)CCC3C(CC(=O)NCCCC(=O)O)S(=O)(=O)O (centres unmarked) [V07-09111] | 430 |
| Nc1ccc2c3c(c(=O)oc2c1S(=O)(=O)O)CCC3C(CC(=O)O)S(=O)(=O)[O-].[Na+] (centres unmarked) [V07-09089] | 429 |
| Nc1ccc2c3c(c(=O)oc2c1S(=O)(=O)O)CCC3C(CC(=O)NCCCC(=O)ON1C(=O)CCC1=O)S(=O)(=O)O (centres unmarked) [V07-09111-NHS] | 430 |

Inquiry: GET /values?readout=λem&item= Nc1c(S(=O)(=O)O)cc2c3c(c(=O)oc2c1S(=O)(=O)O)CCC3C(CC(=O)O)S(=O)(=O)[O-].[Na+] (centres unmarked) [V07-09140]
Reply text: 435

Inquiry: GET /values?readout=λem&item= Nc1cc2oc(=O)c3c(c2cc1S(=O)(=O)O)C(C(CC(=O)O)S(=O)(=O)O)CC3 (centres unmarked) [V07-09142, bis sodium salt]
Reply text: 440

The reported numbers originate from patent US8039648B2.
